Documented DC50 across a set of molecules
target: IRAK4 (Homo sapiens, UniProt Q9NWZ3); construct: endogenous in cells; host or cells: OCI-LY10; experiment: IRAK4 MSD degradation in OCI-LY10; format: cell-based; conditions: OCI-LY10 cells, 24 hrs, Meso Scale Discovery
Sequence (Q9NWZ3 whole entry): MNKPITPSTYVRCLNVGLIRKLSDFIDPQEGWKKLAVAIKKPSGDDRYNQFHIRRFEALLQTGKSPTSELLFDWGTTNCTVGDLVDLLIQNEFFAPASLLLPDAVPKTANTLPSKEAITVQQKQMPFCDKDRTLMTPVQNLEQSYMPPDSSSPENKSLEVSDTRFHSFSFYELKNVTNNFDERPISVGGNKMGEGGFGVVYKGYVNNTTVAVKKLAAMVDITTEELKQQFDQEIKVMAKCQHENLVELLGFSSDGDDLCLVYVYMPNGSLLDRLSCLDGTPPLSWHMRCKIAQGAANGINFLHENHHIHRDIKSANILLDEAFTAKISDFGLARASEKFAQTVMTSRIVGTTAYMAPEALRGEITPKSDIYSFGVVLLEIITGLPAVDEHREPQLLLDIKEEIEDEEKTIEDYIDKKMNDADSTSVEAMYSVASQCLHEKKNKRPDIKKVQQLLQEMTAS
Property name: DC50

Molecule	Property name	Observed
O=C1CCC(c2ccc(N3CC(CO[C@H]4CCN(C[C@H]5CC[C@H](n6cc(NC(=O)c7cnn8ccc(N9C[C@H]%10C[C@@H]9CO%10)nc78)c(C(F)F)n6)CC5)C[C@@H]4F)C3)cc2Cl)C(=O)N1 (some centres unmarked)	DC50	10 to 100 nM
COc1cc2nn([C@H]3CC[C@H](CN4CC[C@@H](c5cccc6c(C7CCC(=O)NC7=O)nn(C)c56)[C@H](F)C4)CC3)cc2cc1NC(=O)c1cncc(C#N)c1 (single isomer, unassigned)	DC50	< 10 nM
CN(C[C@H]1CC[C@H](c2cn3cc(NC(=O)c4cncc(C(F)(F)F)n4)ccc3n2)CC1)[C@H]1CCN(c2cccc3c2n(C)c(=O)n3C2CCC(=O)NC2=O)C[C@H]1F (single isomer, unassigned)	DC50	< 10 nM
CN(C[C@H]1CC[C@H](c2nc3cc(C(C)(C)O)c(NC(=O)c4cccc(C(F)(F)F)n4)cc3s2)CC1)[C@H]1CCN(c2cccc3c2n(C)c(=O)n3C2CCC(=O)NC2=O)C[C@H]1F (some centres unmarked)	DC50	< 10 nM
Cn1c(=O)n(C2CCC(=O)NC2=O)c2cccc(N3CC[C@H](NC[C@H]4CC[C@H](n5cc(NC(=O)c6cnn7ccc(N8C[C@H]9C[C@@H]8CO9)nc67)c(C(F)F)n5)CC4)[C@@H](F)C3)c21 (some centres unmarked)	DC50	< 10 nM

====

target: IRAK4 (Homo sapiens); construct: endogenous in cells; host or cells: OCI-LY10; test: IRAK4 MSD degradation in OCI-LY10; format: cell-based; details: OCI-LY10 cells, 24 hrs, Meso Scale Discovery
Listed below: DC50 values for each entry.

Compound	DC50
COc1cc(C(=O)Nc2ccc3nn([C@H]4CC[C@H](CN5CC[C@@H](c6cccc7c6n(C)c(=O)n7C6CCC(=O)NC6=O)C(F)(F)C5)CC4)cc3c2)nc(C(F)(F)F)c1 (some centres unmarked)	> 0.2 µM
Cc1cc2nn([C@H]3CC[C@H](CN4CC[C@@H](c5cccc6c5n(C)c(=O)n6C5CCC(=O)NC5=O)[C@H](F)C4)CC3)cc2cc1NC(=O)c1cncc(C(F)(F)F)n1 (some centres unmarked)	< 0.01 µM
CN(C[C@H]1CC[C@H](n2cc(NC(=O)c3cnn4cccnc34)c(C(F)F)n2)CC1)[C@@H]1CCN(c2cccc3c2n(C)c(=O)n3C2CCC(=O)NC2=O)CC1(F)F (some centres unmarked)	0.01 to 0.1 µM
COc1ccc2c(c1N1CC3(CCN(C[C@H]4CC[C@H](c5nc6cc(C(C)(C)O)c(NC(=O)c7cccc(C(F)(F)F)n7)cc6o5)CC4)CC3(F)F)C1)n(C)c(=O)n2C1CCC(=O)NC1=O (some centres unmarked)	< 0.01 µM
Cn1nc(C2CCC(=O)NC2=O)c2cccc([C@@H]3CCN(C[C@H]4CC[C@H](n5cc6cc(NC(=O)c7cccc(C(F)(F)F)n7)ccc6n5)CC4)C[C@H]3F)c21 (some centres unmarked)	< 0.01 µM
CN(C[C@H]1CC[C@H](c2cc3cc(NC(=O)c4cncc(C(F)(F)F)n4)ccn3n2)CC1)[C@H]1CCN(c2cccc3c2n(C)c(=O)n3C2CCC(=O)NC2=O)C[C@@H]1F (single isomer, unassigned)	0.01 to 0.1 µM
Cn1c(=O)n(C2CCC(=O)NC2=O)c2cccc(N3CCC4(CCN(C[C@H]5CC[C@H](c6nc7cc(C(C)(C)O)c(NC(=O)c8cccc(C(F)(F)F)n8)cc7o6)CC5)CC4(F)F)CC3)c21 (some centres unmarked)	> 0.2 µM
Cn1c(=O)n(C2CCC(=O)NC2=O)c2cccc([C@@H]3CCN(C[C@H]4CC[C@H](c5nc6cc(C(C)(C)O)c(NC(=O)c7cccc(C(F)(F)F)n7)cc6s5)CC4)C[C@H]3F)c21 (single isomer, unassigned)	< 0.01 µM
C[C@H]1CN(c2ccn3ncc(C(=O)Nc4cn([C@H]5CC[C@H](CN(C)[C@H]6CCN(c7cccc8c7n(C)c(=O)n8C7CCC(=O)NC7=O)C[C@H]6F)CC5)nc4C(F)F)c3n2)CCO1 (some centres unmarked) [I-24]	< 0.01 µM
Cc1nc(C(=O)Nc2ccc3nn([C@H]4CC[C@H](CN5CC[C@@H](c6cccc7c6n(C)c(=O)n7C6CCC(=O)NC6=O)[C@H](F)C5)CC4)cc3c2)co1 (some centres unmarked)	< 0.01 µM
Cn1c(=O)n(C2CCC(=O)NC2=O)c2cccc([C@@H]3CCN(C[C@H]4CC[C@H](c5nc6cc(C(C)(C)O)c(NC(=O)c7cncc(C(F)(F)F)n7)cc6s5)CC4)C[C@H]3F)c21 (some centres unmarked)	< 0.01 µM
COc1ccc2c(c1N1CC[C@@H](N(C)C[C@H]3CC[C@H](n4cc(NC(=O)c5cnn6cccnc56)c(C(F)F)n4)CC3)[C@H](F)C1)n(C)c(=O)n2C1CCC(=O)NC1=O (single isomer, unassigned)	< 0.01 µM
Cn1c(=O)n(C2CCC(=O)NC2=O)c2ccc(F)c(N3CC4(CCN(C[C@H]5CC[C@H](n6cc7cc(NC(=O)c8cncc(C#N)c8)c(C(C)(C)O)cc7n6)CC5)CC4(F)F)C3)c21 (some centres unmarked)	< 0.01 µM
CC(C)Oc1cc2nn([C@H]3CC[C@H](CN4CC[C@@H](c5cccc6c5n(C)c(=O)n6C5CCC(=O)NC5=O)[C@H](F)C4)CC3)cc2cc1NC(=O)c1cncc(C#N)c1 (some centres unmarked)	< 0.01 µM
Cn1c(=O)n(C2CCC(=O)NC2=O)c2ccc(F)c([C@H]3CCN(C[C@H]4CC[C@H](n5cc6cc(NC(=O)c7cncc(C#N)c7)c(C(C)(C)O)cc6n5)CC4)CC3(F)F)c21 (single isomer, unassigned)	< 0.01 µM
Cc1nn([C@@H]2CCC(=O)NC2=O)c2cccc(N3CC(CN4CCN(C[C@H]5CC[C@H](n6cc(NC(=O)c7cnn8ccc(N9C[C@H]%10C[C@@H]9CO%10)nc78)c(C(F)F)n6)CC5)CC4)C3)c12	< 0.01 µM
Cn1nc(C2CCC(=O)NC2=O)c2cccc(N3CC(O)(CN4CCN(C[C@H]5CC[C@H](n6cc(NC(=O)c7cnn8ccc(N9C[C@H]%10C[C@@H]9CO%10)nc78)c(C(F)F)n6)CC5)CC4)C3)c21 (some centres unmarked)	< 0.01 µM
COc1cc2nn([C@H]3CC[C@H](CN4CCC5(CN(c6cccc7c6n(C)c(=O)n7C6CCC(=O)NC6=O)C5)C(F)(F)C4)CC3)cc2cc1NC(=O)c1cncc(F)c1 (some centres unmarked)	< 0.01 µM
CN(C[C@H]1CC[C@H](n2cc3cc(NC(=O)c4cccc(C(F)(F)F)n4)c(C#N)cc3n2)CC1)[C@H]1CCN(c2cccc3c2n(C)c(=O)n3C2CCC(=O)NC2=O)C[C@H]1F (some centres unmarked)	< 0.01 µM
Cn1c(=O)n(C2CCC(=O)NC2=O)c2cccc([C@@H]3CCN(C[C@H]4CC[C@H](n5cc6cc(NC(=O)c7cccc(C#N)c7)ccc6n5)CC4)C[C@H]3F)c21 (some centres unmarked)	< 0.01 µM
